METHOD: Solubility at pH 4
Assay type: physicochemical
MEASUREMENT PARAMETERS: buffer
METRIC NAME: solubility

Any idea what solubility was measured for [O-][S+](Cc1ccc(Cl)cc1)c1cc2nc(C3CCCCC3)[nH]c2cc1Cl (stereo unspecified) ?
> 20 µM

* * *

METHOD: Ratio of EC50 for CB2 receptor to EC50 for CB1 receptor (unknow origin)
METRIC NAME: Ratio EC50
Numbers only.

Known results for compounds:
CC(C)(C)c1nc2cc(S(=O)(=O)c3c(Cl)cccc3Cl)ccc2n1CC1CCOCC1 = 292
CC(C)(C)c1nc2cc(S(=O)(=O)c3ccccc3)ccc2n1CC1CCCCC1 = 14
CC(C)(C)c1nc2cc(S(=O)(=O)c3ccncc3)ccc2n1CC1CCOCC1 = 215
CC(C)(C)c1nc2cc(S(=O)(=O)C(F)(F)c3ccc(C#N)cc3)ccc2n1CC1CCCCC1 = 62

Now consider a different compound.
Any idea what Ratio EC50 was measured for CCOc1ccc(Cc2nc3cc([S+]([O-])CC)c(Cl)cc3n2CC2CCOCC2)cc1 (stereo not given) ?
484

* * *

ASSAY TARGET: Cannabinoid receptor 2 (Rattus norvegicus) (UniProt Q9QZN9)
Sequence (whole entry): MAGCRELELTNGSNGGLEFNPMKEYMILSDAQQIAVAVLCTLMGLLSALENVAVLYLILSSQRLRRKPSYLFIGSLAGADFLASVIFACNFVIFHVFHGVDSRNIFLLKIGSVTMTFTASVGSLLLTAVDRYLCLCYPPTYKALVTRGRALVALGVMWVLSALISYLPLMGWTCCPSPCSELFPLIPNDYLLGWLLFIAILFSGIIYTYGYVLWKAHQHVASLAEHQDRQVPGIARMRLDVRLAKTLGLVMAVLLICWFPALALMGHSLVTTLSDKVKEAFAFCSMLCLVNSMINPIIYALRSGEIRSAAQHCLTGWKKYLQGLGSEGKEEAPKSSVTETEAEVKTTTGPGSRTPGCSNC
METHOD: Agonist activity at rat CB2 receptor
Type: functional
METRIC NAME: Efficacy (%)
One number for each entry, in %.

Known results for molecules:
CCS(=O)(=O)c1ccc2c(c1)nc(CC(C)C)n2CC1CCOCC1 = 43
CCS(=O)(=O)c1ccc2c(c1)nc(C1CC1)n2CC1CCOCC1 = 0
CCS(=O)(=O)c1ccc2c(c1)nc(C(C)(C)C)n2CC1CCOCC1 = 102

Now consider a different molecule.
Any idea what Efficacy was measured for `CCS(=O)(=O)c1ccc2c(c1)nc(C(C)C)n2CC1CCCCC1` ?
99

* * *

METHOD: Fraction of dose absorbed in Sprague-Dawley rat at 10 mg/kg, po
Type: ADME, organism-based
Set-up: dose 10 mg/kg, route oral
MEASUREMENT PARAMETERS: in vivo, read-out: Fabs
METRIC NAME: Fa

Any idea what Fa was measured for `CCOc1cc(S(=O)(=O)c2ccc3c(c2)nc(C(C)(C)C)n3CC2CCOCC2)ccn1` ?
≤ 1%

* * *

For each of the compounds below, state its metabolized at 0.25 h.
METHOD: Metabolism in human liver microsomes after 15 mins
Answers are plain numbers, in %.

Known results for compounds:
CC(C)(C)c1nc2cc(S(=O)(=O)c3c(Cl)cccc3Cl)ccc2n1CC1CCOCC1 = 96
Cc1cc(S(=O)(=O)c2ccc3c(c2)nc(C(C)(C)C)n3CC2CCOCC2)ccn1 = 40

Please supply metabolized at 0.25 h for each of the following items, keeping them in order.
1. CCOc1ccc(Cc2nc3cc(SCC)c(Cl)cc3n2CC2CCOCC2)cc1
2. CC(C)(C)c1nc2cc(S(=O)(=O)c3ccc(C#N)cc3)ccc2n1CC1CCOCC1
3. CC(=O)N(C)Cc1ccc(S(=O)(=O)c2ccc3c(c2)nc(C(C)(C)C)n3CC2CCOCC2)cc1

[98, 42, 50]
